experiment description: Cell viability assay (MTT) in Vero cells
Assay type: cell-based
assay conditions: African green monkey
Procedure: The cell toxicity induced by the three tested fractions and the isolated flavonoids was evaluated in a growing Vero cell. […] To this end, Vero cells (1 × 10^4 cells/well) were plated in 96-well microplates 24 h beforehand. […] Then, the optical density at 540 nm (OD540) was measured using a BioTekTM ELx800TM 96-well plate reader (BioTek Instruments Inc., Winooski, VT. The OD540 subtraction of treated cells compared to untreated cells was calculated. […]
quantity name: CC50 at 120 h (µM)
Give the number; µM is assumed, so skip it.

Request the reported CC50 at 120 h associated with COc1cc(O)c2c(c1)O[C@H](c1ccc(O)cc1)CC2=O [7-O-methyl naringenin] 240

Look up CC50 at 120 h: O=C1C[C@@H](c2ccc(O)cc2)Oc2cc(O)cc(O)c21 [Naringenin] 242

Just for reference, paper PMC10609720 is where these values come from.
